System: Splenocytes (B cell proliferation stimulated with anti-IgM F(ab′)2)
assay overview: Splenic Cell Proliferation Assay
Assay type: cell-based
experimental context: Mus musculus, Splenocyte, 72 h, CD1 mouse splenocytes, 2.5 ug/ml anti-IgM F(ab′)2 for 72 h, Cell Titer-Glo; read-out: EC50 (nM), Inhibition of splenic cell proliferation
This listing pairs compounds with measured EC50.
measured endpoint: EC50

INSERT INTO results (chem_smiles, value_observed) VALUES
  ('Cc1ncc(COc2cc(F)cc(Oc3ccc(-c4nn(CCO)c5ncnc(N)c45)cc3)c2)cn1', '100 to 1000 nM'),
  ('Nc1ncnc2c1c(-c1ccc(Oc3cccc(OCc4cncs4)c3)cc1)nn2CCc1ccccc1', '< 100 nM'),
  ('CN(C)CCn1nc(-c2ccc(Oc3cccc(OCc4cncs4)c3)cc2)c2c(N)ncnc21', '100 to 1000 nM'),
  ('Cc1ncc(COc2cc(F)cc(Oc3ccc(-c4nn(C5CCOCC5)c5ncnc(N)c45)cc3F)c2)s1', '< 100 nM');

* * *

Test system: Splenocytes (B cell proliferation stimulated with anti-IgM F(ab′)2)
assay overview: Splenic Cell Proliferation Assay
Type: cell-based
experimental context: Mus musculus, Splenocyte, 72 h, CD1 mouse splenocytes, 2.5 ug/ml anti-IgM F(ab′)2 for 72 h, Cell Titer-Glo; read-out: EC50 (nM), Inhibition of splenic cell proliferation
This listing pairs compounds with measured EC50.
measured endpoint: EC50

INSERT INTO results (chem_smiles, value_observed) VALUES
  ('Nc1ncnc2c1c(-c1ccc(Oc3cc(F)cc(OCc4cncn4C4CCCC4)c3)cc1)nn2C1CCOCC1', '< 100 nM'),
  ('Cn1cncc1COc1cc(F)cc(Oc2ccc(-c3nn(C4CCOCC4)c4ncnc(N)c34)c(F)c2)c1', '< 100 nM'),
  ('CC(C)C(=O)N1CCC[C@@H](n2nc(-c3ccc(Oc4cccc(OCc5ccccc5)c4)cc3)c3c(N)ncnc32)C1', '< 100 nM'),
  ('CC(C)n1nc(-c2ccc(Oc3cc(F)cc(OCc4ccc(CO)nc4)c3)cc2)c2c(N)ncnc21', '< 100 nM'),
  ('Cc1ncc(COc2cccc(Oc3ccc(-c4nn(C)c5ncnc(N)c45)cc3)c2)s1', '< 100 nM'),
  ('Nc1ncnc2c1c(-c1ccc(Oc3cccc(OCc4ccccc4)c3)cc1)nn2C1CCOCC1', '< 100 nM'),
  ('Nc1ncnc2c1c(-c1ccc(Oc3cccc(OCc4ccc(Cl)cc4)c3)cc1)nn2C1CCCC1', '100 to 1000 nM');

* * *

This listing pairs compounds with measured Ki.
system name: recombinant human full-length Bruton Agammaglobulinemia Tyrosine Kinase (Btk) (Homo sapiens (Human))
Sequence (Q06187 whole entry): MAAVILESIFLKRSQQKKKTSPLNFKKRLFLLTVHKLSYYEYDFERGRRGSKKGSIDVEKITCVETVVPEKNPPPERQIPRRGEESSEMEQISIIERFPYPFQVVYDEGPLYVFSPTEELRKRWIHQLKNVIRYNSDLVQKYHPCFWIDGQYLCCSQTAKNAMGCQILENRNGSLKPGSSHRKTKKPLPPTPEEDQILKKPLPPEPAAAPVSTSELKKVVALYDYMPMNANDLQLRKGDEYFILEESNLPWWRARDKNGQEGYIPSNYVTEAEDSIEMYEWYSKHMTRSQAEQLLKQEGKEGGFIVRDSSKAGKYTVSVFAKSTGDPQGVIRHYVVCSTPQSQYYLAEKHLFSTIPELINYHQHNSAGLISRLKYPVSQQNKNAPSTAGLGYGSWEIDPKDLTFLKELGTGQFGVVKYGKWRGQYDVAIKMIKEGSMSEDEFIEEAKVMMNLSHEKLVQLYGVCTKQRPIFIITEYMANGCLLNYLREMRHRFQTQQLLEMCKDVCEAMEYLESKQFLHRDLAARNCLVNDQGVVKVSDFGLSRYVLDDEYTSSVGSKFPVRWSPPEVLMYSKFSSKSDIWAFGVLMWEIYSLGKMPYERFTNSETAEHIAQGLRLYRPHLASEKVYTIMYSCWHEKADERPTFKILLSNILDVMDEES
assay overview: Btk Kinase Inhibition Assay (fluorescence polarization)
Assay type: biochemical
experimental context: 10 μM ATP, 250 μM substrate, 60 minutes; Ki calculated from IC50 using the Cheng-Prusoff equation
measured endpoint: Ki

INSERT INTO measurements (chem_smiles, measured_endpoint, value_observed) VALUES
  ('Cn1cncc1COc1cc(F)cc(Oc2ccc(-c3nn(C4CCOCC4)c4ncnc(N)c34)c(F)c2)c1', 'Ki', '< 100 nM'),
  ('Cc1ncc(COc2cc(F)cc(Oc3ccc(-c4nn(C(CO)CO)c5ncnc(N)c45)cc3)c2)s1', 'Ki', '< 100 nM'),
  ('CC(=O)N1CCC[C@@H](n2nc(-c3ccc(Oc4cccc(COc5ccccc5C#N)c4)cc3)c3c(N)ncnc32)C1', 'Ki', '< 100 nM'),
  ('Nc1ncnc2c1c(-c1ccc(Oc3cc(F)cc(OCc4cnccn4)c3)cc1)nn2C1CCOCC1', 'Ki', '< 100 nM');
